Reported INHIBITION values follow for various molecules
tested on: Plasmodium berghei; assay: Screen against P. berghei liver stage (PbLuc), transformed with Luciferase, at 2uM; format: functional, HepG2; conditions: tested at 2 uM
About 2,700 (4%) of roughly 68,000 compounds showed an effect of 50% or more. Many of the other results were omitted from the sample, so strong results are more common in it than they were.
Give just the numeric value; % need not be written.

As a guide, the following entries are already answered.
molecule | tested system | INHIBITION (%)
CCn1cnnc1CNC(=O)N1CCCCCC1 | Plasmodium berghei | -8.32
CCOc1ccccc1CC(=O)N1C[C@@H](C(=O)O)[C@H](c2ccncc2)C1 | Plasmodium berghei | -36.68
CN(Cc1ccc(Cl)cc1)S(=O)(=O)N(C)Cc1cnn(C)c1 | Plasmodium berghei | -2.86
CS(=O)(=O)Cc1ccc(C(=O)N2CCCC(n3cncn3)C2)o1 (stereo not given) | Plasmodium berghei | 12.7
CCn1cnnc1CNC(=O)N1CCOCC1 | Plasmodium berghei | 27.31
Cc1nn(CCC#N)c(C)c1CCC(=O)N(C)C | Plasmodium berghei | -57.94

Consider the molecule Cc1cncc(Oc2ccc(CN)cc2)n1 . State its measured INHIBITION.
32.31

Look up and report measured INHIBITION for this entry: CCn1cnnc1CNC(=O)N1CCC(C(=O)NC)CC1
-29.11

Could you please provide reported INHIBITION for Cc1ccc(C(CNCc2nccn2C)N2CCOCC2)s1 (stereo not given) ? Thanks!
69.82

Quickly give me recorded INHIBITION for O=C1COc2ccc(C(=O)NS(=O)(=O)c3ccccc3F)cc2N1
8.37

====

test system: Plasmodium berghei; assay: Screen against P. berghei liver stage (PbLuc), transformed with Luciferase, at 2uM; type: functional, HepG2; conditions: tested at 2 uM
The whole screen tested about 68,000 compounds, of which about 2,700 (4%) showed an effect of 50% or more. The full list was thinned out, with strong results kept by preference.
assay metric: INHIBITION (%)
The response must be a number in % with no trailing unit.

# example entries with known answers
compound | INHIBITION / %
O=C(c1cc(C2CC2)[nH]n1)N1CCN(Cc2ccc(Cl)cc2)CC1 | 59.99
CCC(O)CN1CCN(C(=O)c2ccn(-c3ccccc3)n2)CC1 (stereo not drawn) | 14.97

Consider the compound O=C(NCCCO)c1cc(-c2ccc3c(c2)CCO3)n[nH]1 . State its measured INHIBITION.
-56.16

====

system: Plasmodium berghei; assay: Screen against P. berghei liver stage (PbLuc), transformed with Luciferase, at 2uM; format: functional, HepG2; conditions: tested at 2 uM
Hit rate of the full screen: of about 68,000 compounds, about 2,700 (4%) showed an effect of 50% or more. The sample as a whole holds a higher share of strong results than the screen did.
Would you please tag the item class 1 when its INHIBITION is 20% or above, and class 0 when it is below?

Example cases with answers are listed next.
compound | class label
CCc1nc(CN2CCOC(Cn3nc(C)cc3C)C2)no1 (stereo not given) | class 0
C[C@H]1C[C@@H]2CCN(C(=O)c3ccncc3)C[C@H]2O1 | class 0
COC1CCN(C(=O)CCn2cccn2)CC1 | class 1
CCN(CC)CCNC(=O)CCc1c(C)nn(-c2ccc(Cl)cc2)c1C | class 1
Cc1ccoc1C(=O)N1C[C@@H]2[C@@H](C1)OCC(=O)N2Cc1cccnc1 | class 0

Test whether the compound CCN(CC)CCNC(=O)C(C)OCC(F)(F)F (stereo not given) records INHIBITION of 20% or higher.
class 0

Record O=C(C1CCCC1)N1CCCC1c1nnc2n1CCCCC2 (stereo not given) ; criterion: INHIBITION no lower than 20%. Met?
class 0

Is INHIBITION at least 20%? Consider COCCNC(=O)N1CCN(C(C)C(=O)NC(C)C)CC1 (stereo not given)
class 1

Hi team, for COc1ccc(C[C@@H]2CC[C@H](CN(C)C3CCN(C)CC3)O2)cc1 , is the recorded INHIBITION at or above 20%?
class 1

Tell me whether INHIBITION is at least 20% here: CN1CCC(N(C)C[C@H]2CC[C@@H](Cc3ccc4occc4c3)O2)CC1
class 0

# check: INHIBITION of c1cc(CNCC2OCCc3cn(CC4CCOCC4)nc32)ccn1 (stereo not given) is greater than or equal to 20%
class 0

Evaluate CCN(CC)CC1CCN(C(=O)CCn2cccn2)CC1 : INHIBITION at minimum 20%?
class 0

Tell me whether INHIBITION is at least 20% here: Cc1nn(C)c(Cl)c1CNCc1ccc(OCC(N)=O)cc1
class 0

Is it the case that COCCN1CCCn2cnc(CNC(=O)N(C)C)c2C1 has INHIBITION reaching or exceeding 20%?
class 0

Is the recorded value of INHIBITION equal to or greater than 20% for this compound? O=S(=O)(NCC1OCCc2cn(Cc3ccccn3)nc21)C1CC1 (stereo not given)
class 1

Does INHIBITION meet or surpass 20% for COc1ccccc1CCc1nc(CC2CCN(C)CC2)no1 ?
class 1

Decide: INHIBITION of c1ccc(C2CCN(c3ncnc4c3CCNC4)CC2)cc1 >= 20%?
class 0

Evaluate O=C(O)COCC(=O)NC1CC2(CCCCC2)Oc2ccccc21 (stereo not given) : INHIBITION at minimum 20%?
class 0

Say whether O=C(Nc1ccc2ncccc2c1)C1CC(=O)N(Cc2ccccn2)C1 (stereo not given) shows INHIBITION of 20% or more.
class 0

Can CCn1nc(C)c(NC(=O)CN2CCC(c3ccccc3Cl)C2)c1C (stereo not given) be said to have INHIBITION at or above 20%?
class 1

Identify whether the reported INHIBITION of the following compound is 20% or greater: CCOCCCNC(=O)c1nc2c(s1)CCCN2c1ccc(C)nn1
class 0

Given the entry Cc1cnn(CC2CN(Cc3nnc(C(C)C)o3)CCO2)c1 (stereo not given) , answer whether its INHIBITION meets or surpasses 20%.
class 0

Entry CC(C)c1nc(C2CCCN2C(=O)c2ccc(N(C)C)nn2)no1 (stereo not given) : is its INHIBITION no less than 20%?
class 0

Could you verify whether the entry CCn1nc(C)c(NC(=O)C(C)C)c1C shows INHIBITION of no less than 20%?
class 0

Entry CCn1nc(C)c(NC(=O)CN2CCN(C(C)=O)CC2)c1C : is its INHIBITION no less than 20%?
class 1

Determine whether measured INHIBITION meets or exceeds 20% for COCCn1cc2c(n1)C(CNC(=O)c1cc(C)[nH]c1C)OCC2 (stereo not given)
class 1

Check the entry c1cnc(N2CCC(C3CCN(CCCn4cccn4)C3)CC2)nc1 (stereo not given) : does INHIBITION equal or exceed 20%?
class 0

====

test system: Plasmodium berghei; experiment: Screen against P. berghei liver stage (PbLuc), transformed with Luciferase, at 2uM; type: functional, HepG2; settings: tested at 2 uM
In all, about 68,000 compounds went through this assay and about 2,700 (4%) showed an effect of 50% or more. Many of the other results were omitted from the sample, so strong results are more common in it than they were.
Binary call on INHIBITION with cut-off 10%: strictly below means satisfied, and equality or higher means not satisfied.

compound | tested system | class label
Cc1cc(C)cc(NC(=O)c2cnc(N3CCN(C)CC3)nc2C)c1 | Plasmodium berghei | not satisfied
CC(C)=CCCC(C)CN1CCC(n2cc(C(=O)NCCO)nn2)CC1 (stereo not given) | Plasmodium berghei | not satisfied
Cc1noc(C)c1CN1CC[C@H]2OCC[C@@H](C(=O)N3CCCO3)[C@H]2C1 | Plasmodium berghei | not satisfied
CC(C)(C)c1cn(C2CCN(C(=O)c3cncnc3)CC2)nn1 | Plasmodium berghei | not satisfied

Lab note: confirm whether the reported INHIBITION for this compound is below 10%, equality not counting. compound: CC(C(=O)NCCOc1ccccc1)n1cncn1 (stereo not given)
not satisfied

Dear colleague, could you confirm whether INHIBITION of CC(C)=CCCC(C)CN1CCC(n2cc(CO)nn2)CC1 (stereo not given) falls below 10%? Thanks.
not satisfied

Find out if reported INHIBITION for CCN(C(=O)Nc1cccnc1OC)C1CC1 is less than 10%
satisfied

====

INHIBITION values, listed per item
system: Plasmodium berghei; experiment: Screen against P. berghei liver stage (PbLuc), transformed with Luciferase, at 2uM; format: functional, HepG2; settings: tested at 2 uM
Hit rate of the full screen: of about 68,000 compounds, about 2,700 (4%) showed an effect of 50% or more. The entries come from a sample that favours strong results as a whole.
Provide only the numeric value, understood in %.

Below: 3 molecules and their reported INHIBITION.
molecule | measured result
c1cncc(N2CCOCC3(CCCN(Cc4cccs4)C3)C2)c1 (stereo not drawn) | -26.24
Cc1ccc(N2CCCC(NCc3cccc4c3OCCO4)C2)nn1 (stereo not drawn) | 15.13
Cc1ccc(N2CCCC(NCCCS(C)(=O)=O)C2)nn1 (stereo not drawn) | -15.77

State INHIBITION on Plasmodium berghei. Entry: Cc1ccc(N2CCCC(NCc3cccc4c3OCO4)C2)nn1 (stereo not drawn)
56.02

# return INHIBITION for CCOc1cccc(C(=O)N2CCN(c3nccc(OC)n3)CC2)c1 , test system: Plasmodium berghei
8.37
